Origin of values: ChEMBL document CHEMBL1201862

System: Malme-3M
Assay: NCI tumour cell line growth inhibition, 48 h
Active and inactive are the calls of the source. No stated cut-off is given here; in the data, active = GI50 up to about 1.1 µM and inactive = higher.
Outcome codes: Y (active), N (inactive)

>  <Compound>
COc1ccc2c(c1)OCCCN(C)OC2c1ccccc1 (stereo unspecified)

>  <Target Desc>
Malme-3M

>  <Group Label>
N

$$$$
>  <Compound>
CC1=C2C(=CC(C)(C)[C@@H]2O)C(=O)[C@](C)(O)C12CC2

>  <Target Desc>
Malme-3M

>  <Group Label>
Y

$$$$
>  <Compound>
CC1(C)OC[C@H](COCOP2(=O)Oc3ccc4ccccc4c3-c3c(ccc4ccccc34)O2)O1

>  <Target Desc>
Malme-3M

>  <Group Label>
N

$$$$
>  <Compound>
CC1(C)c2ccccc2C(O)C12CCC(=O)CC2 (stereo unspecified)

>  <Target Desc>
Malme-3M

>  <Group Label>
N

$$$$
>  <Compound>
Cc1ccccc1NC(=O)c1cc2cc(/N=N/c3ccccc3C(=O)O)ccc2oc1=O

>  <Target Desc>
Malme-3M

>  <Group Label>
N

$$$$
>  <Compound>
OCC1NC(CO)C(O)C1O (stereo unspecified)

>  <Target Desc>
Malme-3M

>  <Group Label>
N

$$$$
>  <Compound>
COc1cccc(N2C(=O)C3c4[nH]c5ccccc5c4C4CCCC4C3C2=O)c1 (stereo unspecified)

>  <Target Desc>
Malme-3M

>  <Group Label>
N

$$$$
>  <Compound>
CCCCCCCCCCCCCC(=O)OC1C(CO)OC(=O)C1O (stereo unspecified)

>  <Target Desc>
Malme-3M

>  <Group Label>
N

$$$$
>  <Compound>
O=C(COC(=O)c1cccc2c(=O)c3ccccc3[nH]c12)Nc1ccccc1

>  <Target Desc>
Malme-3M

>  <Group Label>
N

$$$$
>  <Compound>
c1ccc(CCc2cccnc2)nc1

>  <Target Desc>
Malme-3M

>  <Group Label>
N

$$$$
>  <Compound>
CN(C)CCCCC1CCN(CC(=O)N2c3ccccc3NC(=O)c3ccccc32)CC1

>  <Target Desc>
Malme-3M

>  <Group Label>
N

$$$$
